System: human umbilical vein endothelial cells (HUVEC)
Assay: Cytotoxicity, MTT test, HUVEC
Assay type: cell-based
Conditions: 24 h incubation, read-out: IC50 viability (MTT-reducing ability) HUVEC
Endpoint Name: IC50 (µM)
One number for each entry, in µM.

// below: answered compounds
COc1cc(C2Oc3cc(-c4oc5cc(O)cc(O)c5c(=O)c4O)ccc3OC2CO)ccc1O (stereo not shown) [Compound 6, 2,3-Dehydrosilybin]: 20.9
COc1cc(C2Oc3cc(-c4oc5cc(O)cc(O)c5c(=O)c4O)ccc3OC2COC(=O)CCCCCCCCCCC(=O)OCC2Oc3ccc(-c4oc5cc(O)cc(O)c5c(=O)c4O)cc3OC2c2ccc(O)c(OC)c2)ccc1O (stereo not shown): 98.4
COc1cc([C@H]2Oc3cc([C@H]4Oc5cc(O)cc(O)c5C(=O)[C@@H]4O)ccc3O[C@@H]2CO)ccc1O: 57.8

The recorded IC50 for entry "COc1cc([C@H]2Oc3cc([C@H]4Oc5cc(O)cc(O)c5C(=O)[C@@H]4O)ccc3O[C@@H]2COC(=O)CCCCCCCCCCC(=O)OC[C@H]2Oc3ccc([C@H]4Oc5cc(O)cc(O)c5C(=O)[C@@H]4O)cc3O[C@@H]2c2ccc(O)c(OC)c2)ccc1O" equals 7.6

====

Experiment: Square wave voltammetry (in situ / ex situ) at pyrolytic graphite electrode
Format: physicochemical
Settings: SWV, vs. Ag/AgCl/3 M KCl, pH 7.4, n = 3; oxidation of resorcinol moiety (ring A)
Kindly supply the reported Oxidation potential Ep2 values for the records listed here.
One number for each entry, in V.

COc1cc([C@H]2Oc3cc([C@H]4Oc5cc(O)cc(O)c5C(=O)[C@@H]4O)ccc3O[C@@H]2COC(=O)CCCCCCCCCCC(=O)OC[C@H]2Oc3ccc([C@H]4Oc5cc(O)cc(O)c5C(=O)[C@@H]4O)cc3O[C@@H]2c2ccc(O)c(OC)c2)ccc1O: 0.83
COc1cc([C@@H]2Oc3cc([C@H]4Oc5cc(OCc6ccc(COc7cc(O)c8c(c7)O[C@H](c7ccc9c(c7)O[C@@H](c7ccc(O)c(OC)c7)[C@H](CO)O9)[C@@H](O)C8=O)cc6)cc(O)c5C(=O)[C@@H]4O)ccc3O[C@H]2CO)ccc1O: 0.83

Moving on to the next molecule.
The recorded Oxidation potential Ep2 for entry COc1cc(C2Oc3cc(-c4oc5cc(O)cc(O)c5c(=O)c4O)ccc3OC2CO)ccc1O (stereo not drawn) [Compound 6, 2,3-Dehydrosilybin] equals 0.92
